Reference source: ChEMBL document CHEMBL1629519

- test.summary: Aqueous solubility of the compound in dimethyl sulfoxide
- Type: physicochemical
- run.parameters: aqueous solution with dimethyl sulfoxide
Assignment: determine reported solubility for the given compounds.
Give bare numbers, in µM.

The examples below pair each entry with its known result.
CSc1nc(NCCc2ccccc2)c2cnn(CC(Cl)c3ccccc3)c2n1 (configuration not stated): 0.166
CSc1nc(NCc2cccc(Cl)c2)c2cnn(CC(Cl)c3ccccc3)c2n1 (configuration not stated): 0.295
CCCSc1nc(NCc2cccc(Cl)c2)c2cnn(CC(Cl)c3ccccc3)c2n1 (configuration not stated): 0.107

Look at each compound and report its solubility.
1. CSc1nc(NCc2ccccc2)c2cnn(CC(Cl)c3ccccc3)c2n1 (configuration not stated)
2. CSc1nc(NCc2cccc(Br)c2)c2cnn(CC(Cl)c3ccccc3)c2n1 (configuration not stated)
3. CSc1nc(NCCc2ccc(Cl)cc2)c2cnn(CC(Cl)c3ccccc3)c2n1 (configuration not stated)
4. CSc1nc(NCCc2cccc(F)c2)c2cnn(CC(Cl)c3ccccc3)c2n1 (configuration not stated)

Output:
[0.512, 0.141, 0.158, 0.588]

----------
- test.summary: Solubility of the compound in 30 % hydroxypropyl-beta-cyclodextrins solution
- Format: physicochemical
- run.parameters: 30% hydroxypropyl-beta-cyclodextrin solution
measurement.name: solubility (µM)
Give bare numbers, in µM.

CCCSc1nc(NCc2cccc(Cl)c2)c2cnn(CC(Cl)c3ccccc3)c2n1 (configuration not stated): 910
CSc1nc(NCCc2cccc(F)c2)c2cnn(CC(Cl)c3ccccc3)c2n1 (configuration not stated): 790
CSc1nc(NCc2ccccc2)c2cnn(CC(Cl)c3ccccc3)c2n1 (configuration not stated): 838
CSc1nc(NCc2cccc(Br)c2)c2cnn(CC(Cl)c3ccccc3)c2n1 (configuration not stated): 390
CSc1nc(NCCc2ccc(Cl)cc2)c2cnn(CC(Cl)c3ccccc3)c2n1 (configuration not stated): 612

List reported solubility for each of these molecules:
1. CSc1nc(NCc2cccc(Cl)c2)c2cnn(CC(Cl)c3ccccc3)c2n1 (configuration not stated)
2. CSc1nc(NCCc2ccccc2)c2cnn(CC(Cl)c3ccccc3)c2n1 (configuration not stated)

Output:
1. 314
2. 947

----------
- test.summary: Antiproliferative activity against human KU812 cells after 3 days by ATP lite 1 step assay
- Assay type: functional, cell-based
- run.parameters: KU812, 72 h
measurement.name: IC50 (µM)
Give bare numbers, in µM.

CSc1nc(NCc2ccccc2F)c2cnn(CC(Cl)c3ccccc3)c2n1 (configuration not stated): 7.87

Input: IC50 lookup needed for CSc1nc(NCc2cccc(Cl)c2)c2cnn(CC(Cl)c3ccccc3)c2n1 (configuration not stated) , thanks.
Output: 24.1

----------
- test.summary: Lipophilicity, log P of the compound
- Format: physicochemical
- run.parameters: octanol/water
Please assign label 0 whenever logP is at or above 6, and label 1 whenever it is below.

Examples with answers:
CCCSc1nc(NCc2cccc(Cl)c2)c2cnn(CC(Cl)c3ccccc3)c2n1 (configuration not stated): label 0
CSc1nc(NCCc2ccc(Cl)cc2)c2cnn(CC(Cl)c3ccccc3)c2n1 (configuration not stated): label 0
CSc1nc(NCc2ccccc2)c2cnn(CC(Cl)c3ccccc3)c2n1 (configuration not stated): label 1
CSc1nc(NCc2cccc(Cl)c2)c2cnn(CC(Cl)c3ccccc3)c2n1 (configuration not stated): label 0
CSc1nc(NCc2cccc(Br)c2)c2cnn(CC(Cl)c3ccccc3)c2n1 (configuration not stated): label 0

Now let's try a different one.
Input: Confirm or reject: logP of CSc1nc(NCCc2cccc(F)c2)c2cnn(CC(Cl)c3ccccc3)c2n1 (configuration not stated) lies strictly below 6
Output: label 0
